Taken from patent US20190177408A1.

EXPERIMENTAL_SYSTEM: T1, IL-4Rα on TF-1 cells (human, UniProt P24394 26-825)
T1 sequence (looked up): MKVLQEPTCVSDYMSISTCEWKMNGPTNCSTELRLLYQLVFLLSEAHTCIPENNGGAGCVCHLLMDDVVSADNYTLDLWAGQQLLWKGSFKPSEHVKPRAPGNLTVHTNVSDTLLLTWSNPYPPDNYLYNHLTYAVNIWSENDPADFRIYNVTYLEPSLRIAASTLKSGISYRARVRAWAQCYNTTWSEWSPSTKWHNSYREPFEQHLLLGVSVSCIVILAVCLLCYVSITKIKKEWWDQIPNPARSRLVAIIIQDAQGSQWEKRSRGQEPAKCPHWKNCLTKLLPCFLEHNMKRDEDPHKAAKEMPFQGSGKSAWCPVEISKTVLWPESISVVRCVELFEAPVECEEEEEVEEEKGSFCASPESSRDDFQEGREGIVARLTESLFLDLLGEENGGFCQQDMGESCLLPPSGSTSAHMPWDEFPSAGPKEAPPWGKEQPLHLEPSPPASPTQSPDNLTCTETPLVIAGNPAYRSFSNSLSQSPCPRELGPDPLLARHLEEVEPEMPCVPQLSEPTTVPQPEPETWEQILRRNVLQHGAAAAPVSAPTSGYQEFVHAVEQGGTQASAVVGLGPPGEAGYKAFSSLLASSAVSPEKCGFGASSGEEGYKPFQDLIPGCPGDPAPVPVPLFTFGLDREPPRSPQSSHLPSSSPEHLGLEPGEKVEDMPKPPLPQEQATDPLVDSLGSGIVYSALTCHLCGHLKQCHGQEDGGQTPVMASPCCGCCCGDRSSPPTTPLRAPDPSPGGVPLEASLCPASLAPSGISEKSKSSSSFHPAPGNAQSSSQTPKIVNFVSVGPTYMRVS
METHOD_DESCRIPTION: cell-based or functional assay
# Inhibitory rate on pro-proliferative effect of IL-4 per entry
The response must contain the number and no unit.

Example entries begin here.
| BINDER | MEASURED_VALUE |
| --- | --- |
| L1001H1000 (antibody, V domains shown, human kappa) VH: EVQLVQSGGGLVHPGGSLRLSCAGSGFTFSRNAMFWVRQAPGKGLEWVSGIGTGGATNYADSVKGRFTISRDNAKNSLYLQMNSLRAEDMAVYYCARGRYYFDYWGQGTLVTVSS VL: EIVLTQSPGTLSLSPGERATLSCRASQSVSNSYLAWYQQKPGQAPRLLIYGASSRAPGIPDRFSGSGSGTDFTLTISRLEPEDFAVYYCQQYDHSAGWTFGQGTKVEIK | 0.98 |
| L1021H1029 (antibody, V domains shown, human kappa) VH: EVQLVESGGGLVQPGGSLRLSCAASGFTFSRNAMFWVRQAPGKGLEWVSGIGTGGATSYADSVKGRFTISRDNAKNSLYLQMNSLRAEDMAVYYCARGRYYFPWWGQGTLVTVSS VL: EIVLTQSPGTLSLSPGERATLSCRASQSVSSSYLAWYQQKPGQAPRLLIFGASSRAPGIPDRFSGSGSGTDFTLTISRLEPEDFAVYYCQQYDHSAGWTFGQGTKVEIK | 1.02 |
| L1021H1027 (antibody, V domains shown, human kappa) VH: EVQLVESGGGLVHPGGSLRLSCAASGFTFSRNAMFWVRQAPGKGLEWVSGIGTGGATSYADSVKGRFTISRDNAKNSLYLQMNSLRAEDTAVYYCARGRYYFPWWGQGTLVTVSS VL: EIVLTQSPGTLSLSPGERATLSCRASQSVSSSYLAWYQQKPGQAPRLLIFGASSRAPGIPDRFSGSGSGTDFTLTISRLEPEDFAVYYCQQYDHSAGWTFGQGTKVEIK | 1.02 |
| L1021H1020 (antibody, V domains shown, human kappa) VH: EVQLVQSGGGLVHPGGSLRLSCAGSGFTFSRNAMFWVRQAPGKGLEWVSGIGTGGATSYADSVKGRFTISRDNAKNSLYLQMNSLRAEDMAVYYCARGRYYFPWWGQGTLVTVSS VL: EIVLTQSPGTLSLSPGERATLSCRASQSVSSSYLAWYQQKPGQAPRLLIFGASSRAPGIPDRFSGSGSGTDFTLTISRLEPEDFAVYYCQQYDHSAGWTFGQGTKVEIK | 0.91 |
| L1021H1000 (antibody, V domains shown, human kappa) VH: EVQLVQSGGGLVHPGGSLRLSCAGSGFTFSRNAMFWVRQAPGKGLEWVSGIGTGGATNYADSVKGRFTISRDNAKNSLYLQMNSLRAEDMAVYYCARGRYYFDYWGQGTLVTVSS VL: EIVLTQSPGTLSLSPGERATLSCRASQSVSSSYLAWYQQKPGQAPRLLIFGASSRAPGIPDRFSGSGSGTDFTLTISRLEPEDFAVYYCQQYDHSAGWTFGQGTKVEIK | 0.95 |

Inhibitory rate on pro-proliferative effect of IL-4 for L1021H1031 (antibody, V domains shown, human kappa) VH: EVQLVESGGGLVQPGGSLRLSCAASGFTFSRNAMFWVRQAPGKGLEWVSGIGTGGATSYADSVKGRFTISRDNAKNSLYLQMNSLRAEDTAVYYCARGRYYFDYWGQGTLVTVSS VL: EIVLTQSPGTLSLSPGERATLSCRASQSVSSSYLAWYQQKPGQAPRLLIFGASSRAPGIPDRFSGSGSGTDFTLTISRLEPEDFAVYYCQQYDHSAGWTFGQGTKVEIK is 1.01
